Values from PubChem BioAssay AID2842

# System: M. tuberculosis H37Rv growth inhibition
# Assay summary: Mycobacterium tuberculosis H37Rv growth inhibition, putative kinase inhibitor library, confirmatory dose response (AID 2842);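 note: bacteria incubated one week before Alamar blue readout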
Measurement name: IC90

Below, each entry is followed by its recorded IC90 result.
CCOc1ccc2nc(N(CCCn3ccnc3)C(=O)c3ccc(F)cc3)sc2c1
7.77 µg/mL
CC(C)Oc1ccc(C(=O)Nc2nnc(-c3cc(Cl)ccc3Cl)o2)cc1
13.8 µg/mL
c1ccc(CN2CCN(c3nc(Nc4ccccc4)c4nccnc4n3)CC2)cc1
5.37 µg/mL

# query: IC90 of entry COc1ccc(OCc2nc(C#N)c(NCc3ccc(C)cc3)o2)cc1 12.1 µg/mL

Next entry: O=c1[nH]c(N/N=C/c2cccs2)nnc1-c1ccccc1 21.6 µg/mL
